Tested on: Haemophilus influenzae
Assay: Antibacterial activity against Haemophilus influenzae after 24 hrs by broth microdilution method
Assay type: functional
Overview of recorded MIC50 for various molecules
Could you give me the number in µg/mL? Just the number is fine.

Request: For the record C[C@H]1COc2c(N3CCN(C)CC3)c(F)cc3c(=O)c(C(=O)O)cn1c23.C[C@H]1COc2c(N3CCN(C)CC3)c(F)cc3c(=O)c(C(=O)O)cn1c23.O , what value of MIC50 is listed for Haemophilus influenzae?
Result: 0.015

Request: Also CC[C@H]1OC(=O)[C@H](C)[C@@H](O[C@H]2C[C@@](C)(OC)[C@@H](O)[C@H](C)O2)[C@H](C)[C@@H](O[C@@H]2O[C@H](C)C[C@H](N(C)C)[C@H]2O)[C@](C)(O)C[C@@H](C)CN(C)[C@H](C)[C@@H](O)[C@]1(C)O ?
Result: 0.5
